- targetOrTestSystem: 5-hydroxytryptamine receptor 7 (Cavia porcellus) (UniProt P50407)
- Sequence (P50407 whole entry): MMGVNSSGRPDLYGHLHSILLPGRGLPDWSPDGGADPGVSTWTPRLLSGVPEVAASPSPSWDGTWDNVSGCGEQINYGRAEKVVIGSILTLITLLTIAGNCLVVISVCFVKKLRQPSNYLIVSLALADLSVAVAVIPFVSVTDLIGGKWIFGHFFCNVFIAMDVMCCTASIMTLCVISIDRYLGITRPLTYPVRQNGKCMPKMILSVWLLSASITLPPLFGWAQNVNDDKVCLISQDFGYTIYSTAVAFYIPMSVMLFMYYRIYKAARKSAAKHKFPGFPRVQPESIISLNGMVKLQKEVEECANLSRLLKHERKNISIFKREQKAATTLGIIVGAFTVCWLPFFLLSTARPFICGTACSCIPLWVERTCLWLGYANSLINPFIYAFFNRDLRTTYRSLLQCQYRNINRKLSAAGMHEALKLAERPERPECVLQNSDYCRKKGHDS
- methodDescription: Agonist activity at 5HT7 receptor assessed as relaxation of substance P-induced Dunkin-Hartley guinea pig ileum contraction relative to 5-carboxamidotryptamine
- Assay type: functional, tissue-based
- Set-up: scale not given: the % may be the effect or the level left
propertyLabel: Activity (%)

1. O=C(CCCCCN1CCN(c2ccccc2-c2ccccc2)CC1)N1CCc2ccccc2C1 :: 89
2. NCCc1c[nH]c2ccc(C(N)=O)cc12 :: 100
3. O=C(CCCCCN1CCN(c2ccccc2-c2ccccc2)CC1)NCc1ccncc1 :: 87
4. N#Cc1ccc(CNC(=O)CCCCCN2CCN(c3ccccc3-c3ccccc3)CC2)cc1 :: 82
